target: LRRK2 (Homo sapiens (Human), UniProt Q5S007, G2019S); experiment: In Vitro LRRK2 LabChip Assay; type: biochemical; details: Table 4
Sequence (Q5S007 970-2527 G2019S limits assumed): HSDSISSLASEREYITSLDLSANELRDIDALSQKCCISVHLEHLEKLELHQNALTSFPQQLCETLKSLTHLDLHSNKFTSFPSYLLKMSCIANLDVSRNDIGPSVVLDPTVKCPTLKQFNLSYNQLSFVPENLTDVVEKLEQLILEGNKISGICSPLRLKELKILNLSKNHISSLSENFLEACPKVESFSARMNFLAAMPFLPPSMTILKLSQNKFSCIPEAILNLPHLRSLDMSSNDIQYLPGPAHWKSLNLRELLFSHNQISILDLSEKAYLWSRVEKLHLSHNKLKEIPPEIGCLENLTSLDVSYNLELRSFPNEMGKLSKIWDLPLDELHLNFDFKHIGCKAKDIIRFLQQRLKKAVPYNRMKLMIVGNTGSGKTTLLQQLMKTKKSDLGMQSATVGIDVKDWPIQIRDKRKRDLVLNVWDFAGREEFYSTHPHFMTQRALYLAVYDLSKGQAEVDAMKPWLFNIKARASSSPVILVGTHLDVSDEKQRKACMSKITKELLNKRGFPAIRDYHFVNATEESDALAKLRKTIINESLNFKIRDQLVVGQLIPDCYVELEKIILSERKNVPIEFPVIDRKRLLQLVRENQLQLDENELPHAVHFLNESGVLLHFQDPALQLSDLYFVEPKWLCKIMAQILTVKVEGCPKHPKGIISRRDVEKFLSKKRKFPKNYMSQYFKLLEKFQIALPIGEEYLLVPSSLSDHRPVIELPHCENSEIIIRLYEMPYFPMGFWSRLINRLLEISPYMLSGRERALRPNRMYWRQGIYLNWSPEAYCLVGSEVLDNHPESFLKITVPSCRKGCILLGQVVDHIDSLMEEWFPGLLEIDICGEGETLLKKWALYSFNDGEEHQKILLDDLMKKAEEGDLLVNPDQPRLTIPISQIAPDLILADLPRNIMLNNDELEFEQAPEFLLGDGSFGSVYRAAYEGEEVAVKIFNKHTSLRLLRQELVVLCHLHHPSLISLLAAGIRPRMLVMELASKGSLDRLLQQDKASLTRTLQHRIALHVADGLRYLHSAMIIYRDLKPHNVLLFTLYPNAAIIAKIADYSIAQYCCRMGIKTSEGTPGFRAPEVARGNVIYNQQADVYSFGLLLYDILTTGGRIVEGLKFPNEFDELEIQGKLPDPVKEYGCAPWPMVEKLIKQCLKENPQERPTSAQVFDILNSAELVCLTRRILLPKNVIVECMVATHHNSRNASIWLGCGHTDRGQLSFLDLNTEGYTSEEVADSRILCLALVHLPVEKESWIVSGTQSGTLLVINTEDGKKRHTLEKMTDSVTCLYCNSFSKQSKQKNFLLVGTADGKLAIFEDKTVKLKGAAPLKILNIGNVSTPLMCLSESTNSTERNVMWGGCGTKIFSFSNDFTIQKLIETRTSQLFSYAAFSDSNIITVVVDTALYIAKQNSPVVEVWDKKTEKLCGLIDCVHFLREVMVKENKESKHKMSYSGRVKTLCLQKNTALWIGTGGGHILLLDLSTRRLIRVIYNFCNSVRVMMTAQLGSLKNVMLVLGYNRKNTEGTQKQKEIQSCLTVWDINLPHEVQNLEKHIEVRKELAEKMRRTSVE
pKi: −log10 of the molar value.
observable: pKi

>>> assay_value("CNc1nc(Nc2ccc(C(=O)N3CCCCC3)cc2OC)ncc1C#N")
8.48
>>> assay_value("COc1cc(C(=O)N2CCOCC2)ccc1Nc1ncc(Cl)c(N2CCCCC2)n1")
7.92
>>> assay_value("CNc1nc(Nc2cc(F)c(C(=O)N(C)CC(C)(C)O)cc2OC)ncc1C(F)(F)F")
8.04
>>> assay_value("CNc1nc(Nc2ccc(C(=O)NC3CC3)cc2OC)ncc1Cl")
8.62
>>> assay_value("CNc1nc(Nc2ccc(C(=O)N3CCN(CC(F)(F)F)CC3)cc2OC)ncc1Br")
8.42
>>> assay_value("CNc1nc(Nc2cc(OC)c(C(=O)N(C)C)cc2Cl)ncc1Cl")
7.93
>>> assay_value("CCNc1nc(Nc2ccc(C(=O)N3CCOCC3)cc2OC(C)C)ncc1C(F)(F)F")
8.35
>>> assay_value("CCNc1nc(Nc2ccc(C(=O)N3CCOCC3)cc2OC(F)(F)F)ncc1C(F)(F)F")
8.49
>>> assay_value("CNc1nc(Nc2ccc(C(=O)N3CCN4CCCCC4C3)cc2OC)ncc1Cl (stereo not drawn)")
8.46
>>> assay_value("COc1cc(C(=O)N2CCOCC2)ccc1Nc1ncc(Cl)c(NCCC2CC2)n1")
8.74
>>> assay_value("CNc1nc(Nc2ccc(C(=O)N3CCN(S(C)(=O)=O)CC3)cc2OC)ncc1Cl")
8.44
>>> assay_value("CNc1nc(Nc2ccc(C(=O)N3CCC(F)C3)cc2OC)ncc1C#N (stereo in doubt)")
8.03
>>> assay_value("CNc1nc(Nc2ccc(C(=O)N3CCOCC3)cc2OC)ncc1OC")
6.59
>>> assay_value("CNc1nc(Nc2cc(OC)c(C(=O)NC3CCN(C)CC3)cc2Cl)ncc1C(F)(F)F")
8.82
>>> assay_value("COc1cc(C(=O)N2CC(N3CCOCC3)C2)ccc1Nc1ncc(Br)c(OC)n1")
8.30
>>> assay_value("CNc1nc(Nc2cc(OC)c(CC(=O)N3CCOCC3)cc2OC)ncc1Br")
8.47
>>> assay_value("CNc1nc(Nc2ccc(C(=O)NC(C)C)cc2OC)ncc1Cl")
8.70
>>> assay_value("CNc1nc(Nc2cc(OC)c(C(=O)N3CCC(C#N)C3)cc2Cl)ncc1Cl (stereo not drawn)")
8.35
>>> assay_value("CNc1nc(Nc2cc(OC)c(CC(=O)N3CCOCC3)cc2OC)ncc1C(F)(F)F")
8.43
>>> assay_value("CNc1nc(Nc2ccc(C(=O)N3CCOCC3)cc2OC(F)F)ncc1Cl")
8.31
>>> assay_value("CNc1nc(Nc2ccc(C(=O)N3CCC(O)CC3)cc2OC)ncc1F")
7.35
>>> assay_value("[2H]C1([2H])OC([2H])([2H])C([2H])([2H])N(C(=O)c2cc(Cl)c(Nc3ncc(C(F)(F)F)c(NC)n3)cc2OC)C1([2H])[2H]")
8.38
>>> assay_value("CNc1nc(Nc2cc(OC)c(C(=O)N3CCC(C#N)CC3)cc2Cl)ncc1Cl")
8.48
>>> assay_value("CNc1nc(Nc2ccc(C(=O)N3CCC(C(F)(F)F)C3)cc2OC)ncc1Br (stereo not drawn)")
8.19

====

Ki values for the molecules below.
biological target: LRRK2 (Homo sapiens (Human), UniProt Q5S007, G2019S); assay: In Vitro LRRK2 LabChip Assay; assay type: biochemical; details: Table 4
observable: Ki (nM)

>>> assay_value("COCCOc1nc(Nc2ccc(C(=O)N3CCOCC3)cc2OC2CCC2)ncc1Cl")
14.3
>>> assay_value("CNc1nc(Nc2ccc(C(=O)N3CCC(F)(F)C3)cc2OC)ncc1C#N")
8.1
>>> assay_value("CNc1nc(Nc2ccc(CC(=O)N3CCOCC3)cc2OC)ncc1Cl")
9
>>> assay_value("CNc1nc(Nc2ccc(C(=O)N3CC4(COC4)C3)cc2OC)ncc1Cl")
6.3
>>> assay_value("COCCNc1nc(Nc2ccc(C(=O)N3CCOCC3)cc2OC)ncc1Cl")
9.4
>>> assay_value("CNc1nc(Nc2ccc(C(=O)N3C[C@H](F)[C@@H](F)C3)cc2OC)ncc1C#N")
13.5
>>> assay_value("CNc1nc(Nc2cc(OC)c(C(=O)N(C)CC(C)(C)O)cc2Cl)ncc1C(F)(F)F")
6.3
>>> assay_value("CNc1nc(Nc2ccc(C(=O)N3CCOCC3)cc2Cl)ncc1Cl")
6
>>> assay_value("CNC(=O)c1ccc(Nc2ncc(C#N)c(NC)n2)c(OC)c1")
6.6
